tested on: Esch.coli U 20; experiment: agar serial dilution test; type: cell-based, Escherichia coli; conditions: Escherichia coli, U20; agar serial dilution, 24 hours, 37° C.; read-out: minimal inhibitory concentration (MIC)
READOUT NAME: MIC (µg/mL)

{"COMPOUND": "Cc1noc(CC(=O)N[C@@H]2C(=O)N3[C@@H]2SC(C)(C)[C@@H]3C(=O)O)n1 [Example 11B]", "QUANTITY UNIT": "µg/mL", "MEASUREMENT QUALIFIER": "=", "EXPERIMENTAL RESULT": 50}
{"COMPOUND": "CCc1noc(C(C)C(=O)N[C@@H]2C(=O)N3[C@@H]2SC(C)(C)[C@@H]3C(=O)O)n1 (stereo partly drawn) [Example 11M]", "QUANTITY UNIT": "µg/mL", "MEASUREMENT QUALIFIER": ">", "EXPERIMENTAL RESULT": 100}
{"COMPOUND": "CC1=C(C(=O)O)N2C(=O)[C@@H](NC(=O)Cc3nc(Cc4ccccc4)no3)[C@H]2SC1 [Example 7]", "QUANTITY UNIT": "µg/mL", "MEASUREMENT QUALIFIER": ">", "EXPERIMENTAL RESULT": 100}
{"COMPOUND": "CCc1nc(CC(=O)N[C@@H]2C(=O)N3C(C(=O)O)=C(CSc4nnc(C)s4)CS[C@H]23)no1 [41 A]", "QUANTITY UNIT": "µg/mL", "MEASUREMENT QUALIFIER": "=", "EXPERIMENTAL RESULT": 3}
{"COMPOUND": "Cc1nc(CC(=O)N[C@@H]2C(=O)N3C(C(=O)O)=C(CN=[N+]=[N-])C[S+]([O-])[C@H]23)no1 (stereo partly drawn) [Example 19]", "QUANTITY UNIT": "µg/mL", "MEASUREMENT QUALIFIER": "=", "EXPERIMENTAL RESULT": 100}
{"COMPOUND": "COCc1noc(CC(=O)N[C@@H]2C(=O)N3[C@@H]2SC(C)(C)[C@@H]3C(=O)O)n1 [Compound A]", "QUANTITY UNIT": "µg/mL", "MEASUREMENT QUALIFIER": "=", "EXPERIMENTAL RESULT": 50}
{"COMPOUND": "Cc1nnc(SCC2=C(C(=O)O)N3C(=O)[C@@H](NC(=O)Cn4cnnn4)[C@H]3SC2)s1 [Cephazolin, reference compound]", "QUANTITY UNIT": "µg/mL", "MEASUREMENT QUALIFIER": "=", "EXPERIMENTAL RESULT": 1.5}
{"COMPOUND": "Cn1nnnc1SCC1=C(C(=O)O)N2C(=O)[C@@H](NC(=O)Cc3nc(CC(=O)O)no3)[C@H]2SC1 [Compound F]", "QUANTITY UNIT": "µg/mL", "MEASUREMENT QUALIFIER": "=", "EXPERIMENTAL RESULT": 0.75}
{"COMPOUND": "CCc1noc(CC(=O)N[C@@H]2C(=O)N3[C@@H]2SC(C)(C)[C@@H]3C(=O)O)n1 [Example 11G]", "QUANTITY UNIT": "µg/mL", "MEASUREMENT QUALIFIER": "=", "EXPERIMENTAL RESULT": 100}
{"COMPOUND": "Cc1noc(CC(=O)N[C@@H]2C(=O)N3C(C(=O)O)=C(CSc4nnnn4C)CS[C@H]23)n1 [Compound G]", "QUANTITY UNIT": "µg/mL", "MEASUREMENT QUALIFIER": "=", "EXPERIMENTAL RESULT": 0.75}
{"COMPOUND": "CC(=O)OCC1=C(C(=O)O)N2C(=O)[C@@H](NC(=O)Cc3noc(Cc4ccccc4)n3)[C@H]2SC1 [Compound C]", "QUANTITY UNIT": "µg/mL", "MEASUREMENT QUALIFIER": ">", "EXPERIMENTAL RESULT": 100}
{"COMPOUND": "COC(=O)C(C(=O)N[C@@H]1C(=O)N2C(C(=O)O)=C(COC(C)=O)CS[C@H]12)c1nc(C)no1 (stereo partly drawn) [Example 38]", "QUANTITY UNIT": "µg/mL", "MEASUREMENT QUALIFIER": ">", "EXPERIMENTAL RESULT": 100}
{"COMPOUND": "CC1=C(C(=O)O)N2C(=O)[C@@H](NC(=O)Cc3nc(C)no3)[C@H]2SC1 [Example 11F]", "QUANTITY UNIT": "µg/mL", "MEASUREMENT QUALIFIER": ">", "EXPERIMENTAL RESULT": 100}
{"COMPOUND": "CC(=O)OCC1=C(C(=O)O)N2C(=O)[C@@H](NC(=O)C(C)c3nc(C)no3)[C@H]2SC1 (mixture of isomers) [Example 11I]", "QUANTITY UNIT": "µg/mL", "MEASUREMENT QUALIFIER": "=", "EXPERIMENTAL RESULT": 50}
{"COMPOUND": "CCc1noc(CC(=O)N[C@@H]2C(=O)N3C(C(=O)O)=C(COC(C)=O)CS[C@H]23)n1 [Example 11L]", "QUANTITY UNIT": "µg/mL", "MEASUREMENT QUALIFIER": "=", "EXPERIMENTAL RESULT": 6}
